B1: LINE1-full (parent)
chain: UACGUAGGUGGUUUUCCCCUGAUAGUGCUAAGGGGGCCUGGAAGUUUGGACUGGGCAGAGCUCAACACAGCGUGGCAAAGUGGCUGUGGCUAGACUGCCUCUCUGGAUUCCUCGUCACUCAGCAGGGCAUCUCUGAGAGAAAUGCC

Variants of: B1
test: self-cleavage, relative activity (ratio to wild type); higher = more cleavage; in vitro, sequencing; the parent is a self-cleaving ribozyme
Classification field. Basis: self-cleavage. Definitions: group 1 (below 0.6), group 2 (0.6 to below 1), group 3 (1 or more)

INSERT INTO results (mut, class_label) VALUES
  ('U45A A78G', 'group 3'),
  ('G40A A141G', 'group 3'),
  ('G74A U100C', 'group 3'),
  ('C51U U81C', 'group 3'),
  ('A31U G58A', 'group 1'),
  ('A64G G105U', 'group 1'),
  ('A69G G72A', 'group 1'),
  ('C71G U130C', 'group 1'),
  ('U104C G126U', 'group 3'),
  ('U20G U85G', 'group 1'),
  ('G7A U47C', 'group 3'),
  ('A30U G144A', 'group 2'),
  ('A50U C146U', 'group 3'),
  ('A107U U119C', 'group 3'),
  ('A24G U85A', 'group 1'),
  ('U20A U143C', 'group 2'),
  ('U14G A140U', 'group 2'),
  ('U91C G106A', 'group 2'),
  ('A79G C99U', 'group 1'),
  ('U15C U109C', 'group 3'),
  ('U13A C63U', 'group 1'),
  ('U13C A77G', 'group 3'),
  ('U39C A77G', 'group 3'),
  ('A6U U12A', 'group 2'),
  ('U112C G126A', 'group 3'),
  ('U52C U134G', 'group 3'),
  ('U108C A117G', 'group 3'),
  ('A57G U102A', 'group 2'),
  ('A77G U143G', 'group 3'),
  ('U96A U100C', 'group 1'),
  ('G35A U100C', 'group 3'),
  ('A79G C90A', 'group 1'),
  ('A65U U81C', 'group 1'),
  ('C120U C123A', 'group 3'),
  ('A78U U112C', 'group 3'),
  ('C18U A22U', 'group 2'),
  ('A69G A121U', 'group 2'),
  ('U46C A94G', 'group 1'),
  ('G114A U134C', 'group 3'),
  ('A42G C98U', 'group 1'),
  ('A65G U134A', 'group 1'),
  ('A31U G126U', 'group 2'),
  ('G54U U81A', 'group 1'),
  ('A69G U104C', 'group 2');
